system: SNB-19; assay: NCI tumour cell line growth inhibition, 48 h
The source made the active and inactive calls. Cut-off read from the data, not from the text of the source: active = GI50 up to about 1.1 µM and inactive = higher.
endpoint: GI50

- molecule: "Cc1cc(C)n(-c2c(O)ccc(O)c2-n2nc(C)cc2C)n1"
  studyTarget: "SNB-19"
  dataValue: "> 100 µM (inactive)"
- molecule: "N#C/C(=C\\c1ccccc1Br)C(=O)c1ccccc1"
  studyTarget: "SNB-19"
  dataValue: "20.4 µM (inactive)"
- molecule: "CN/N=C(\\C(=O)Nc1ccc(C(F)(F)F)cc1[N+](=O)[O-])C(c1cnc2ccc([N+](=O)[O-])cc2n1)[N+](=O)[O-] (centres undefined)"
  studyTarget: "SNB-19"
  dataValue: "96.6 µM (inactive)"
- molecule: "O[C@@]1(c2cccs2)c2cccc(Cl)c2[C@](O)(c2cccs2)c2cccc(Cl)c21"
  studyTarget: "SNB-19"
  dataValue: "26.7 µM (inactive)"
- molecule: "CCCOc1ccc(/C(Cl)=C(\\C=O)c2ccc(OC)c(OC)c2)cc1OCCC"
  studyTarget: "SNB-19"
  dataValue: "23.1 µM (inactive)"
- molecule: "O=C(O)C(C1NCCS1)N1C(=O)c2ccccc2C1=O (centres undefined)"
  studyTarget: "SNB-19"
  dataValue: "> 100 µM (inactive)"
- molecule: "Nn1c(S)nnc1-c1ccccc1Nc1ccccc1-c1nnc(S)n1N"
  studyTarget: "SNB-19"
  dataValue: "> 50 µM (inactive)"
- molecule: "CC[C@H](CCCC[C@H]1CC[C@@H]2CC(=O)C[C@H]12)OC"
  studyTarget: "SNB-19"
  dataValue: "> 100 µM (inactive)"
- molecule: "O=C1c2c(O)cc(O)cc2C(C2OC(CO)C(O)C(O)C2O)c2cc(CO)cc(O)c21 (centres undefined)"
  studyTarget: "SNB-19"
  dataValue: "> 100 µM (inactive)"
- molecule: "CN1CCCc2nc3ccccc3n2C1"
  studyTarget: "SNB-19"
  dataValue: "> 100 µM (inactive)"
- molecule: "COc1ccc(N[S+]([O-])c2ccc(OC)cc2)cc1 (centres undefined)"
  studyTarget: "SNB-19"
  dataValue: "60.1 µM (inactive)"
- molecule: "C1=Cc2ccccc2C1.C=C(C)c1ccccc1.[N-]=[N+]=Nc1ccccc1"
  studyTarget: "SNB-19"
  dataValue: "> 100 µM (inactive)"
- molecule: "COC1=CC(=O)c2c(O)c3c(c(O)c2C1=O)CC(C)(O)OC3 (centres undefined)"
  studyTarget: "SNB-19"
  dataValue: "3.27 µM (inactive)"
- molecule: "COC(CCC[N+](C)(C)C)CC[N+](C)(C)C (centres undefined)"
  studyTarget: "SNB-19"
  dataValue: "> 100 µM (inactive)"
- molecule: "O=C1CCCC1C(O)(C(F)(F)F)C(F)(F)F (centres undefined)"
  studyTarget: "SNB-19"
  dataValue: "> 100 µM (inactive)"
- molecule: "O=C1NC(c2ccc(O)cc2)C2CCC1C2 (centres undefined)"
  studyTarget: "SNB-19"
  dataValue: "> 100 µM (inactive)"
- molecule: "COC(=O)N1N=C(c2ccccc2)C1c1ccccc1 (centres undefined)"
  studyTarget: "SNB-19"
  dataValue: "29.5 µM (inactive)"
- molecule: "COc1cc(C2c3cc4c(cc3OC(O)C2C)OCO4)cc(OC)c1O (centres undefined)"
  studyTarget: "SNB-19"
  dataValue: "11.6 µM (inactive)"
- molecule: "CC(=O)OCC(=O)[C@@]12OC(C)(C)O[C@@H]1C[C@H]1[C@@H]3CC=C4C[C@@H](O)CC[C@]4(C)[C@H]3CC[C@@]12C"
  studyTarget: "SNB-19"
  dataValue: "39.9 µM (inactive)"
- molecule: "CCCCCCCCCCCCOP(N)(=O)OCCCCCCCCCCCC"
  studyTarget: "SNB-19"
  dataValue: "> 100 µM (inactive)"
- molecule: "Cn1c(C(C#N)c2nc(Cl)ncc2Br)nc2ccccc21 (centres undefined)"
  studyTarget: "SNB-19"
  dataValue: "> 100 µM (inactive)"
- molecule: "COc1ccc(-c2cc(=O)c3ccccc3[nH]2)c(OC)c1"
  studyTarget: "SNB-19"
  dataValue: "> 100 µM (inactive)"
- molecule: "CC1=NN(C(=O)Cc2ccccc2)C(=O)/C1=C\\c1ccccc1O"
  studyTarget: "SNB-19"
  dataValue: "> 100 µM (inactive)"
- molecule: "Cc1n[nH]c(=O)n1N1C(=O)c2ccccc2C1=O"
  studyTarget: "SNB-19"
  dataValue: "> 100 µM (inactive)"
- molecule: "COC1C(OC(=O)/C=C/C=C/C=C/C=C/C(=O)O)CCC2(CO2)C1C1(C)OC1CC=C(C)C (centres undefined)"
  studyTarget: "SNB-19"
  dataValue: "> 56.1 µM (inactive)"
- molecule: "CCOc1ccc(C(CN2CCOCC2)C(C)=O)cc1OC (centres undefined)"
  studyTarget: "SNB-19"
  dataValue: "17.1 µM (inactive)"
- molecule: "Cc1ccc2c(O)c3c(cc2c1)C(=O)c1c2c(cc(O)c1C3=O)C1(C)OC(O2)C(O)C(N(C)C)C1O (centres undefined)"
  studyTarget: "SNB-19"
  dataValue: "1.17 µM (inactive)"
- molecule: "CC(C)Sc1nc(C#N)cc2c1CCCC2"
  studyTarget: "SNB-19"
  dataValue: "> 100 µM (inactive)"
- molecule: "CC(C)(OCc1ccccc1)c1ccccc1P(c1ccccc1)c1ccccc1"
  studyTarget: "SNB-19"
  dataValue: "69 µM (inactive)"
